- Target System: human DGKζ (Homo sapiens (Human))
- Sequence (Q13574 other isoform, or with tags, fused parts or gaps): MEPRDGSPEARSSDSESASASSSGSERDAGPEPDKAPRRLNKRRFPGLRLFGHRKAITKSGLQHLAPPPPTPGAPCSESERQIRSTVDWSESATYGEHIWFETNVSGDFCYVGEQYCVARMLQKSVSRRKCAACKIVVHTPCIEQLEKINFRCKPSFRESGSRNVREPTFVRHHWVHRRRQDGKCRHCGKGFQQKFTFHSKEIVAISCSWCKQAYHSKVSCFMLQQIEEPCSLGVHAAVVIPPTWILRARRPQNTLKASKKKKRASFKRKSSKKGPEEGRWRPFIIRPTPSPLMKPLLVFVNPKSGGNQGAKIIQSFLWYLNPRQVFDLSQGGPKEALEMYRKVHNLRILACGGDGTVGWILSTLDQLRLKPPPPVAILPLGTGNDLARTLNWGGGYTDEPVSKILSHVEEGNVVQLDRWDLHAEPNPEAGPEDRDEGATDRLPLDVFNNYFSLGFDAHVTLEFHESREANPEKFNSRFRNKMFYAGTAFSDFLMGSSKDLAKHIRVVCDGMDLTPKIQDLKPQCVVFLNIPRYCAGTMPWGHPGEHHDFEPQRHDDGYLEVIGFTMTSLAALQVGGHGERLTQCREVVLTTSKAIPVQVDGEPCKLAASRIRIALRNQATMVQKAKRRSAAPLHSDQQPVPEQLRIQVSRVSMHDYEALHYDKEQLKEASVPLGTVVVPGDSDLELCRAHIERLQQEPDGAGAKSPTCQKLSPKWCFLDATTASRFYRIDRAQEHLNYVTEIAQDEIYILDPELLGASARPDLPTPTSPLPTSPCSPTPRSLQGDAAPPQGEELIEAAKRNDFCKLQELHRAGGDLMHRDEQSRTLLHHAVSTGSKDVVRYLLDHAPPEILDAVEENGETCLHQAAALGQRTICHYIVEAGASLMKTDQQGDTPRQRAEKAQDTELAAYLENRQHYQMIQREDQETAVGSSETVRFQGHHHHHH
- Experiment Summary: DGKζ LIPGLO assay (extruded liposome substrate, ADP-Glo luminescence)
- Type: biochemical
- Particulars: liposome (LIPGLO) assay; read-out: DGK zeta (liposome assay) IC50
Some compounds, each annotated with its measured IC50.
Quantity Measured: IC50 (nM)

{"Compound": "CCC(N1C[C@H](C)N(c2nc(=O)n(C)c3ccc(C#N)nc23)C[C@H]1C)C12CC(C(F)(F)F)(C1)C2 (single isomer, unassigned) [Example 448]", "Target System": "human DGKζ (Homo sapiens (Human))", "Unit Of Measure": "nM", "Meas Value": 5140}
{"Compound": "CCC(C1CC1)N1C[C@H](C)N(c2nc(=O)n(C)c3ccc(C#N)nc23)C[C@H]1C (stereo partly shown) [Example 455]", "Target System": "human DGKζ (Homo sapiens (Human))", "Unit Of Measure": "nM", "Meas Value": 7550}
{"Compound": "[2H]C([2H])([2H])n1c(=O)nc(N2C[C@@H](CC)N(C(C)c3ccc(C(F)(F)F)cc3)C[C@@H]2C)c2nc(C#N)ccc21 (single isomer, unassigned) [Example 419]", "Target System": "human DGKζ (Homo sapiens (Human))", "Unit Of Measure": "nM", "Meas Value": 55}
{"Compound": "CCC(N1C[C@H](C)N(c2nc(=O)n(C)c3ccc(C#N)nc23)C[C@H]1C)C12CC(C(F)(F)F)(C1)C2 (stereo partly shown) [Example 447]", "Target System": "human DGKζ (Homo sapiens (Human))", "Unit Of Measure": "nM", "Meas Value": 5570}
{"Compound": "CCOC[C@@H]1CN(c2nc(=O)n(C)c3ccc(C#N)nc23)[C@@H](C)CN1C(CC)c1ccc(C(F)(F)F)cc1 (stereo partly shown) [Example 401]", "Target System": "human DGKζ (Homo sapiens (Human))", "Unit Of Measure": "nM", "Meas Value": 230}
{"Compound": "CC[C@H]1CN(C(C)c2ccc(C(F)(F)F)cc2)[C@H](CC)CN1c1nc(=O)n(C)c2ccc(OC)nc12 (single isomer, unassigned) [Example 428]", "Target System": "human DGKζ (Homo sapiens (Human))", "Unit Of Measure": "nM", "Meas Value": 125000}
{"Compound": "CCC(c1ccc(OCC2CN(C)C2)cc1)N1C[C@H](C)N(c2nc(=O)n(C)c3ccc(C#N)nc23)C[C@H]1CC (stereo partly shown) [Example 344]", "Target System": "human DGKζ (Homo sapiens (Human))", "Unit Of Measure": "nM", "Meas Value": 17100}
{"Compound": "CCC(c1ccc(OCC2(C)CC2)cc1)N1C[C@H](C)N(c2nc(=O)n(C)c3ccc(C#N)nc23)C[C@H]1CC (stereo partly shown) [Example 346]", "Target System": "human DGKζ (Homo sapiens (Human))", "Unit Of Measure": "nM", "Meas Value": 1240}
{"Compound": "CCC(c1ccc(OCCC2CC2)cc1)N1C[C@H](C)N(c2nc(=O)n(C)c3ccc(C#N)nc23)C[C@H]1CC (stereo partly shown) [Example 339]", "Target System": "human DGKζ (Homo sapiens (Human))", "Unit Of Measure": "nM", "Meas Value": 79}
{"Compound": "CC[C@@H]1CN(c2nc(=O)[nH]c3ccc(C#N)nc23)[C@@H](C)CN1C(C)c1ccc(C(F)(F)F)cc1 (single isomer, unassigned) [Example 414]", "Target System": "human DGKζ (Homo sapiens (Human))", "Unit Of Measure": "nM", "Meas Value": 11300}
{"Compound": "CCC(c1ccc(OC2CC2)cc1)N1C[C@H](C)N(c2nc(=O)n(C)c3ccc(C#N)nc23)C[C@H]1CC (stereo partly shown) [Example 312]", "Target System": "human DGKζ (Homo sapiens (Human))", "Unit Of Measure": "nM", "Meas Value": 870}
{"Compound": "CCC(c1ccc(OCc2nccs2)cc1)N1C[C@H](C)N(c2nc(=O)n(C)c3ccc(C#N)nc23)C[C@H]1CC (stereo partly shown) [Example 347]", "Target System": "human DGKζ (Homo sapiens (Human))", "Unit Of Measure": "nM", "Meas Value": 950}
{"Compound": "CCC(c1ccc(F)c(F)c1)N1C[C@H](C)N(c2nc(=O)n(C)c3ccc(C#N)nc23)C[C@H]1CC (stereo partly shown) [Example 319]", "Target System": "human DGKζ (Homo sapiens (Human))", "Unit Of Measure": "nM", "Meas Value": 22}
